The following molecules are listed with their measured IC50 values.
- assaySystem: human 5-HT2A receptor (Homo sapiens, UniProt P28223)
- Construct: host or cells: CHO-K1
- Sequence (P28223 whole entry): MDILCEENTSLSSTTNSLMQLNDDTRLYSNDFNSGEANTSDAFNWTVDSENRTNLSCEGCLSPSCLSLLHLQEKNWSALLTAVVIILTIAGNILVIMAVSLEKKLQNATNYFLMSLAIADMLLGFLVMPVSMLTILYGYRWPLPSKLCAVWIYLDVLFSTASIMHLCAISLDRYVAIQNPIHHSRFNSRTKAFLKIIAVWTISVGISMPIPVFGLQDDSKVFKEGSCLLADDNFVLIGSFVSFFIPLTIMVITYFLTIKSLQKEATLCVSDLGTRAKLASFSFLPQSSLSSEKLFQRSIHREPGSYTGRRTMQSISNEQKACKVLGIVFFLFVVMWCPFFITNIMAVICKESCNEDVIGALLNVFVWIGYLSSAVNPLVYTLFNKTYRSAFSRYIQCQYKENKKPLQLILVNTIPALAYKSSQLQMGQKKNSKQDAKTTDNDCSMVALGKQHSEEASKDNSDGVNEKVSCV
- experimentNotes: 5HT2A Antagonism Assay (Euroscreen FAST-05051), IP-One HTRF
- Format: cell-based
- measurementParameters: 5-HT2A (IC50), CHO-K1 cells expressing human 5-HT2A, reference agonist at EC80, IP-One

- molecule: "NCC1Cc2ccc(F)cc2Oc2ccccc21 (single isomer, unassigned)"
  IC50: "< 1000 nM"
- molecule: "CNCC1Cc2ccc(Cl)cc2Oc2cccnc21 (single isomer, unassigned)"
  IC50: "< 1000 nM"
- molecule: "NCC1Cc2ncccc2Oc2cc(F)ccc21 (single isomer, unassigned)"
  IC50: "< 1000 nM"
- molecule: "CNCC1Cc2c(F)cccc2Oc2cccnc21 (single isomer, unassigned)"
  IC50: "< 1000 nM"
- molecule: "CNCC1Cc2ccncc2Oc2ccccc21 (single isomer, unassigned)"
  IC50: "< 1000 nM"
- molecule: "Cc1cccc2c1CC(CN)c1ncccc1O2 (single isomer, unassigned) [Compound 141]"
  IC50: "< 1000 nM"
- molecule: "CNC[C@H]1c2ncccc2Oc2ccccc2[C@H]1C (stereo in doubt)"
  IC50: "1000 to 10000 nM"
- molecule: "CNCC1Cc2ccccc2Oc2cccc(F)c21 (single isomer, unassigned) [Compound 107]"
  IC50: "1000 to 10000 nM"
- molecule: "CNCC1Oc2ccccc2Oc2cccnc21 (single isomer, unassigned)"
  IC50: "1000 to 10000 nM"
- molecule: "C[C@@H]1c2ccccc2Oc2cccnc2[C@H]1CN (stereo in doubt)"
  IC50: "1000 to 10000 nM"
- molecule: "CNC[C@H]1c2ncccc2Oc2ccccc2[C@@H]1C (stereo in doubt)"
  IC50: "1000 to 10000 nM"
- molecule: "CNCC1Cc2ncccc2Oc2ccc(F)cc21 (single isomer, unassigned)"
  IC50: "< 1000 nM"
- molecule: "NCC1Cc2ncccc2Oc2ccc(Cl)cc21 (single isomer, unassigned)"
  IC50: "1000 to 10000 nM"
- molecule: "NCC1Cc2ncccc2Oc2c(F)cccc21 (single isomer, unassigned)"
  IC50: "> 10000 nM"

====

- assaySystem: human 5-HT2A receptor (Homo sapiens, UniProt P28223)
- Construct: host or cells: CHO-K1
- experimentNotes: 5HT2A Antagonism Assay (Euroscreen FAST-05051), IP-One HTRF
- Type: cell-based
- measurementParameters: 5-HT2A (IC50), CHO-K1 cells expressing human 5-HT2A, reference agonist at EC80, IP-One
pIC50: −log10 of the molar value.

- compound: "CNCC1Cc2c(F)cccc2Oc2ccccc21 (single isomer, unassigned) [Compound 82]"
  pIC50: "> 6.00"
- compound: "CNCC1Cc2ccccc2Oc2cccnc21 (single isomer, unassigned) [Compound 6]"
  pIC50: "5.00 to 6.00"
- compound: "CNC[C@@H]1c2ncccc2Oc2ccccc2[C@H]1C (stereo in doubt) [Compound 118]"
  pIC50: "5.00 to 6.00"
- compound: "NCC1Cc2cc(Cl)ccc2Oc2cccnc21 (single isomer, unassigned) [Compound 121]"
  pIC50: "> 6.00"
- compound: "NCC1Cc2ccccc2Oc2c(F)cccc21 (single isomer, unassigned) [Compound 100]"
  pIC50: "> 6.00"
- compound: "CNCC1Cc2ncccc2Oc2ccc(Cl)cc21 (single isomer, unassigned) [Compound 170]"
  pIC50: "> 6.00"
- compound: "NCC1Cc2c(Cl)cccc2Oc2cccnc21 (single isomer, unassigned) [Compound 144]"
  pIC50: "> 6.00"
- compound: "NCC1Cc2ncccc2Oc2cccc(F)c21 (single isomer, unassigned) [Compound 156]"
  pIC50: "< 5.00"
- compound: "CCc1ccc2c(n1)C(CNC)Cc1ccccc1O2 (single isomer, unassigned) [Compound 152]"
  pIC50: "> 6.00"
- compound: "NCC1Cc2ccccc2Oc2cc(F)ccc21 (single isomer, unassigned) [Compound 1]"
  pIC50: "> 6.00"
- compound: "NCC1Cc2cc(F)ccc2Oc2ccccc21 (single isomer, unassigned) [Compound 96]"
  pIC50: "> 6.00"
- compound: "NCC1Cc2ccncc2Oc2ccccc21 (single isomer, unassigned) [Compound 21]"
  pIC50: "5.00 to 6.00"
- compound: "NCC1Cc2cccnc2Oc2ccccc21 (single isomer, unassigned) [Compound 17]"
  pIC50: "> 6.00"
- compound: "CNCC1Oc2ccc(F)cc2Oc2ccccc21 (single isomer, unassigned) [Compound 43]"
  pIC50: "> 6.00"
- compound: "CNCC1Cc2ccccc2Oc2c(F)cccc21 (single isomer, unassigned) [Compound 102]"
  pIC50: "> 6.00"
- compound: "CN(C)CC1Cc2ccccc2Oc2cccnc21 (single isomer, unassigned) [Compound 111]"
  pIC50: "5.00 to 6.00"
- compound: "CNCC1Cc2ccccc2Oc2cccc(F)c21 (single isomer, unassigned) [Compound 106]"
  pIC50: "> 6.00"
- compound: "NCC1Oc2ccccc2Oc2cnccc21 (single isomer, unassigned) [Compound 49]"
  pIC50: "< 5.00"
- compound: "NCC1Cc2ncccc2Oc2ccccc21 (single isomer, unassigned) [Compound 29]"
  pIC50: "5.00 to 6.00"
